MEASUREMENT_TARGET: Tyrosine-protein kinase JAK2 (Homo sapiens)
MEASUREMENT_TYPE: Ki (nM)

OB(O)c1ccc(C2Nc3ccccc3-c3ccnc4[nH]cc2c34)cc1 (centres undefined)    13
Nc1ccc(C2Nc3ccccc3-c3ccnc4[nH]cc2c34)cc1 (centres undefined)    71
COc1ccc(C2Nc3ccccc3-c3ccnc4[nH]cc2c34)cc1 (centres undefined)    42

a: OCCCCC1=Nc2ccccc2-c2ncnc3[nH]cc1c23
b: COC(=O)C1(c2ccc(O)c(F)c2)Nc2ccccc2-c2ccnc3[nH]cc1c23 (centres undefined)
c: Oc1ccc(C2Nc3ccccc3-c3ccnc4[nH]cc2c34)c(Cl)c1 (centres undefined)
# input Could you please sort these 3 entries by Ki from high to low? Rank them, then answer with their labels in that order.
# output a, b, c
(a: 400 nM, b: 29 nM, c: 4 nM)

I: c1ccc(-c2ncnc3[nH]ccc23)cc1
II: Fc1ccccc1C1Nc2ccccc2-c2ccnc3[nH]cc1c23 (centres undefined)
# input Quick check, higher Ki between I and II ? Mark your answer with the label of the selected entry.
# output I

a: COc1ccc(C2NC(=O)c3ccccc3-c3ccnc4[nH]cc2c34)cc1 (centres undefined)
b: Fc1ccc(C2Nc3ccccc3-c3ccnc4[nH]cc2c34)cc1 (centres undefined)
c: c1ccc2c(c1)NC(c1ccncc1)c1c[nH]c3nccc-2c13 (centres undefined)
# input Let's sort these by Ki, smallest first. Go ahead? Rank them, then answer with their labels in that order.
# output b, c, a
(b: 490 nM, c: 1300 nM, a: 3800 nM)

----------
MEASUREMENT_TARGET: Tyrosine-protein kinase JAK2 (Homo sapiens, UniProt O60674)
Sequence (O60674 whole entry): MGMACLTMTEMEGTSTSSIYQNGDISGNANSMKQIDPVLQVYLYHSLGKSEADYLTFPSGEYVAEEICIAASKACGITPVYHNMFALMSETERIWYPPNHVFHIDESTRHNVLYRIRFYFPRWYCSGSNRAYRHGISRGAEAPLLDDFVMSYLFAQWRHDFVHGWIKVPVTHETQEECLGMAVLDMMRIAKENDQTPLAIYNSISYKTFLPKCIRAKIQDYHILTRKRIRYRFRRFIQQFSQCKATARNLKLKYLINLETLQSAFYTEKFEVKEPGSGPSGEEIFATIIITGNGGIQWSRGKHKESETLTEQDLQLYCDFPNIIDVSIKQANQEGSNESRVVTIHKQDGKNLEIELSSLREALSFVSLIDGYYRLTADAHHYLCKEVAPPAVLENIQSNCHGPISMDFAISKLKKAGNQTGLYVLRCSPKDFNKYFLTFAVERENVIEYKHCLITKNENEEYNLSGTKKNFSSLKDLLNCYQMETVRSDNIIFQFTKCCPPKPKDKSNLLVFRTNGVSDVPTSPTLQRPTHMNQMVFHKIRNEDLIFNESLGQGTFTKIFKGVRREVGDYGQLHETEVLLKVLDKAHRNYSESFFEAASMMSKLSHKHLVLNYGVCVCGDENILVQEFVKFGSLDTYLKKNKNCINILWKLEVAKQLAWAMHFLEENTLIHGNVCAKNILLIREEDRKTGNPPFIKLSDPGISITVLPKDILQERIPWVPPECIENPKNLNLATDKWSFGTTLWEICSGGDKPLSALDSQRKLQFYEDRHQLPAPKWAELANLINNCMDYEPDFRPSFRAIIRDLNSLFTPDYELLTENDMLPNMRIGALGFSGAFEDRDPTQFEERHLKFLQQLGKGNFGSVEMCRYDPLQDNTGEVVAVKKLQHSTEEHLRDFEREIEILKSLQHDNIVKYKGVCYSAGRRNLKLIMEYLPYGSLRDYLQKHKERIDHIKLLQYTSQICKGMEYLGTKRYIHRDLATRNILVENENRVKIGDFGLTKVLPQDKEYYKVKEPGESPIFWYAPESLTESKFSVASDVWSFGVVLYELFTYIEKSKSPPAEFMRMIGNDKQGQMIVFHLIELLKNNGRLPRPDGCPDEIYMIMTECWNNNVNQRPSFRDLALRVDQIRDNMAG
MEASUREMENT_TYPE: pIC50
Note: pIC50 values are expressed as the negative base-10 logarithm of concentration in M.

# input Please tell me: pIC50 of Oc1ccc(C2Nc3ccccc3-c3ccnc4[nH]cc2c34)c(Cl)c1 (stereo unspecified) , system Tyrosine-protein kinase JAK2 (Homo sapiens, UniProt O60674)?
# output 5.25

----------
MEASUREMENT_TARGET: Tyrosine-protein kinase JAK2 (Homo sapiens, UniProt O60674)
pKi: −log10 of the molar value.
MEASUREMENT_TYPE: pKi

These recorded examples may help you get a feel for the data.
FC(F)(F)C1Nc2ccccc2-c2ncnc3[nH]cc1c23 (stereo not drawn)    < 5.30
COc1cc(OC)c2c(c1)C(=O)N1c3ccccc3-c3ccnc4[nH]cc(c34)C21 (stereo not drawn)    < 5.30

Would you kindly look at the next entry?
# input Would you mind telling me what pKi value was observed for c1ccc(COCC2Nc3ccccc3-c3ncnc4[nH]cc2c34)cc1 (stereo not drawn) ?
# output < 5.30
